# maps each entry to its Inhibition percentage against C. neoformans ATCC 32264
system: C. neoformans ATCC 32264; test: Antifungal broth microdilution (CLSI M27-A3), growth inhibition; assay type: cell-based, Cryptococcus neoformans; conditions: 3.9 μg∙mL^−1, 48 h
# output: bare number, implied unit %

Below: 4 compounds and their reported Inhibition percentage against C. neoformans ATCC 32264.
COMPOUND | MEASUREMENT
COC(=O)C12CCCC(C)(C)C1CCc1cc(C(C)C)c(OC(=O)CCc3cn(CSc4ccccc4)nn3)c(OC(=O)CCc3cn(CSc4ccccc4)nn3)c12 (stereo not drawn) | 0.0
COC(=O)C12CCCC(C)(C)C1CCc1cc(C(C)C)c(OC(=O)CCc3cn(Cc4ccc([N+](=O)[O-])cc4)nn3)c(OC(=O)CCc3cn(Cc4ccc([N+](=O)[O-])cc4)nn3)c12 (stereo not drawn) | 0.0
CC(C)c1cc2c3c(c1OC(=O)CCCc1cn(CSc4ccccc4)nn1)OC(=O)C31CCCC(C)(C)C1CC2 (stereo not drawn) | 1.5
CC(C)c1cc2c(c(OC(=O)CCCc3cn(Cc4ccc([N+](=O)[O-])cc4)nn3)c1OC(=O)CCCc1cn(Cc3ccc([N+](=O)[O-])cc3)nn1)C13CCCC(C)(C)C1CC2OC3=O (stereo not drawn) | 4.9

query: Returns the measured Inhibition percentage against C. neoformans ATCC 32264 for the input compound. Input: CC(C)c1cc2c(c(OC(=O)CCCc3cn(Cc4ccccc4)nn3)c1OC(=O)CCCc1cn(Cc3ccccc3)nn1)C13CCCC(C)(C)C1CC2OC3=O (stereo not drawn)
result: 0.0

query: Entry CC(C)c1cc2c(c(OC(=O)CCc3cn(Cc4ccccc4)nn3)c1OC(=O)CCc1cn(Cc3ccccc3)nn1)C13CCCC(C)(C)C1CC2OC3=O (stereo not drawn) please
result: 0.0
